target: FXYD2-gamma-a subunit (target of the phage display screening and Kd determination) (human) (UniProt P54710); assay: synthetic peptide; method not stated
Sequence (P54710 whole entry): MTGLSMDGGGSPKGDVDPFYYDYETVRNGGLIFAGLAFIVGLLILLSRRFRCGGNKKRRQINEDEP
Where no end group is shown, it is not given here.
property name: Kd (µM)

| binder | assay value |
| --- | --- |
| LPLSRHY (also: biotinylated in ICC tests, site not given here) [P89] | 109 |
